// data source = patent US20230365583A1

pIC50: −log10 of the molar value.
# pIC50 measurements, system: UniProt Q96RU2
# Sequence (Q96RU2 whole entry): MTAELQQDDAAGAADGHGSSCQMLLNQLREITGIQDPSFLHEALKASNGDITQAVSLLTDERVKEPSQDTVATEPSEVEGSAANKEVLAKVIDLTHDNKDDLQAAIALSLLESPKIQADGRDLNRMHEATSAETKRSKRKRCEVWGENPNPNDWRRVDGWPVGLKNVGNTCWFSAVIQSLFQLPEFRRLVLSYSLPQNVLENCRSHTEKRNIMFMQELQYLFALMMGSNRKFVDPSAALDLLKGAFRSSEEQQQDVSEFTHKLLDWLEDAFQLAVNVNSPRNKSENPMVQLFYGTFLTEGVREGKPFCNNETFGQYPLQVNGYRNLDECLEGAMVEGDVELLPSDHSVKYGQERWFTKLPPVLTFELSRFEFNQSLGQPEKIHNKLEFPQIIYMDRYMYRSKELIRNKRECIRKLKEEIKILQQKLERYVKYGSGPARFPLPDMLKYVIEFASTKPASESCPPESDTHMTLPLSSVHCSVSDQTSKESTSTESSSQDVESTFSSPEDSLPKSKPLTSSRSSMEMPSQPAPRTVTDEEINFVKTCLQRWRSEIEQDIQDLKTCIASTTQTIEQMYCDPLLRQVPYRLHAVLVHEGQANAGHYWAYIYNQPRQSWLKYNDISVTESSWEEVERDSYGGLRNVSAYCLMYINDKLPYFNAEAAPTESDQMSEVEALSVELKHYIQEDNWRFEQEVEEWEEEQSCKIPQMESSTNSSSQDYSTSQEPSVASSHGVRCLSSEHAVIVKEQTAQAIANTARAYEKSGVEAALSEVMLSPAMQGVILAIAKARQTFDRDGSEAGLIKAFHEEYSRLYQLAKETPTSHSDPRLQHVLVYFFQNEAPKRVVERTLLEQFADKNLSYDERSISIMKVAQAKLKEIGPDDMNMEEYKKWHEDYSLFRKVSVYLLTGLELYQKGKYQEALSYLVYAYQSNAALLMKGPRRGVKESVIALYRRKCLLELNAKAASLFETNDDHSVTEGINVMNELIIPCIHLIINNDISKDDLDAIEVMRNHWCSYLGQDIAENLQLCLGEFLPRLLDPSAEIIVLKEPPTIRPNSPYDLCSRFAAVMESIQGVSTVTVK
Recorded Metric: pIC50

Compound | Recorded Metric | Observed Result
Cc1ccc2c(N)c(C(=O)NCCc3ccc(N4CCNCC4)cc3)sc2n1 | pIC50 | > 6.00
CCCc1nc2sc3c(NCCc4ccc(OC)cc4)ncnc3c2c2c1CCC2 | pIC50 | > 6.00
CCCc1nc2sc3c(NCCc4ccc(OC)c(OC)c4)ncnc3c2c2c1CCC2 | pIC50 | > 6.00
COc1ccc(CCNC(=O)c2sc3nc(C)ccc3c2N)cc1OC | pIC50 | > 6.00
CCCc1ccc2c(n1)sc1c(NCCc3ccc(OC)c(OC)c3)ncnc12 | pIC50 | > 6.00
CCCc1nc2oc(C(=O)NCCc3ccc(OC)c(OC)c3)c(N)c2c2c1CCC2 | pIC50 | > 6.00
CCCc1nc2sc(C(=O)N[C@@H](C)Cc3ccc(OC)cc3)c(N)c2c2c1CCC2 | pIC50 | > 6.00
Cc1ccc2c(N)c(C(=O)NCCc3ccc(C4CC5CCC(C4)N5)cc3)sc2n1 (stereo not drawn) | pIC50 | > 6.00
CCCc1nc2sc(C(=O)NCCc3ccc(OC)c(OC)c3)c(N)c2c2c1CCC2 | pIC50 | > 6.00
CCCc1nc2sc(C(=O)NCCc3ccc(N4CCNCC4)cc3)c(N)c2c2c1CCC2 | pIC50 | > 6.00
COc1ccc(CCNC(=O)c2sc3nc4c(c(C)c3c2N)CCC4)cc1OC | pIC50 | > 6.00
Cc1ccc2c(N)c(C(=O)NCCc3ccc(C4CC5CCC(C4)N5C(=O)OC(C)(C)C)cc3)sc2n1 (stereo not drawn) | pIC50 | > 6.00
CCCc1nc2sc3c(NCCCc4ccc(OC)c(OC)c4)ncnc3c2c2c1CCC2 | pIC50 | 4.00 to 5.00
CCCc1nc2sc(C(=O)NCCc3ccc(OC)c(OC)c3)c(NC(C)=O)c2c2c1CCC2 | pIC50 | > 6.00
CCCc1nc2sc(C(=O)NCCc3ccc(OC)c(OC)c3)c(N)c2cc1C(=O)N(C)C | pIC50 | > 6.00
CCCc1nc2sc3c(NCc4ccco4)ncnc3c2c2c1CCC2 | pIC50 | > 6.00
CCCc1nc2sc(C(=O)NCCc3ccc(OC)c(OC)c3)c(N)c2c2c1CCCC2 | pIC50 | > 6.00
CCCc1ccc2c(n1)sc1c(NCCc3ccc4c(c3)OCCO4)ncnc12 | pIC50 | > 6.00
